# Assay name: chemical genetic growth profiling, strain panel (AID 1159580);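 note: tested at 20 µM; growth read once vehicle control cultures reached saturation at 30 °C; lower values mean less growth of the strain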
# Test parameters: S. cerevisiae deletion strains, growth OD, locus YPL256C, strain CLN2
The campaign covered roughly 5,500 compounds. About 2,000 (36%) were called active. About 18% were inconclusive and are not listed. Cut-off read from the data, not from the text of the source: active = normalized growth mostly below about 0.91 (no sharp cut-off); inconclusive = no clear call, values can overlap the other calls; inactive = mostly above about 0.92. The list shows a part of the results.
Choose the fitting class; nothing outside active, inactive is accepted.

Prompt: Recorded test outcome, item Cn1c(CSCCOc2ccccc2)nnc1SCc1ccc(Cl)cc1Cl
Completion: inactive

Prompt: Recorded test outcome, item O=C1CCCC2C3CC(CN12)[C@@H]1CCCCN1C3 (stereo partly specified)
Completion: inactive

Prompt: Recorded test outcome, item CC1(C)C(=O)C=C[C@@]2(C)C1=C(O)C(=O)[C@]1(C)C2CC[C@@]2(C)[C@H](c3ccoc3)C[C@H]3O[C@]321 (stereo partly specified)
Completion: active

Prompt: Recorded test outcome, item CC(=O)/C(=C\c1ccccc1)CC(=O)O
Completion: inactive

Prompt: Recorded test outcome, item O=C(NCc1ccncc1)c1ccc(-n2cccn2)cc1
Completion: inactive

Prompt: Recorded test outcome, item CC(C)(O/N=C(/C(=O)N[C@@H]1C(=O)N2C(C(=O)[O-])=C(C[n+]3ccccc3)CSC12)c1csc(N)n1)C(=O)O (stereo partly specified)
Completion: inactive

Prompt: Recorded test outcome, item COc1cc2c(c(OC)c1OC)-c1ccc(OC)c(=O)cc1[C@@H](NC(C)=O)CC2
Completion: inactive

Prompt: Recorded test outcome, item CC(C)(C)c1ccc(C(O)CCCN2CCC(C(O)(c3ccccc3)c3ccccc3)CC2)cc1 (stereo unspecified)
Completion: inactive

Prompt: Recorded test outcome, item CC(=O)O[C@H]1C[C@@H](OC(C)=O)C(C)(C)C2C[C@@H](OC(C)=O)[C@@]3(C)C4=CC(=O)O[C@@H](c5ccoc5)[C@]4(C)CCC3[C@]21C (stereo partly specified)
Completion: inactive

Prompt: Recorded test outcome, item Cc1occc(=O)c1O
Completion: inactive

Prompt: Recorded test outcome, item Fc1cccc(Cl)c1CSc1nncn1-c1ccc(OCc2ccccc2)cc1
Completion: inactive

Prompt: Recorded test outcome, item C=CC(C1=CC(=O)C(OC)=CC1=O)c1ccc(O)cc1 (stereo unspecified)
Completion: inactive

Prompt: Recorded test outcome, item Cc1cc(Br)ccc1-n1c(Sc2c([N+](=O)[O-])cc(C(F)(F)F)cc2[N+](=O)[O-])nc2ccccc2c1=O
Completion: inactive

Prompt: Recorded test outcome, item CC(C)=CCC[C@](C)(O)C1CC=C(C)CC1 (stereo partly specified)
Completion: inactive

Prompt: Recorded test outcome, item O=C(O)CS
Completion: inactive

Prompt: Recorded test outcome, item OC[C@@H](O)[C@@H](O[C@@H]1O[C@H](CO)[C@@H](O)[C@H](O)[C@H]1O)[C@H](O)[C@@H](O)CO
Completion: inactive

Prompt: Recorded test outcome, item CCN(CC)CCNC(=O)c1cc(S(C)(=O)=O)ccc1OC
Completion: inactive

Prompt: Recorded test outcome, item CC(C)NCC(O)c1ccc2ccccc2c1 (stereo unspecified)
Completion: inactive

Prompt: Recorded test outcome, item Nc1ccc([As](=O)(O)O)cc1
Completion: inactive

Prompt: Recorded test outcome, item C1CNCCN1
Completion: inactive

Prompt: Recorded test outcome, item CC(C)c1ccc(NCC(O)CSc2ccccc2)cc1 (stereo unspecified)
Completion: active

Prompt: Recorded test outcome, item O=C(O)c1ccccc1Nc1cccc(OCc2ccc3ccccc3n2)c1
Completion: inactive

Prompt: Recorded test outcome, item CCOC(=O)/C(=N/Nc1c(Cl)cccc1Cl)c1csc(N)n1
Completion: active

Prompt: Recorded test outcome, item O=C1O[C@H](C(O)CO)C(O)=C1O (stereo partly specified)
Completion: inactive

Prompt: Recorded test outcome, item CC(=O)NCCCS(=O)(=O)O
Completion: inactive

Prompt: Recorded test outcome, item C=CC(C1=CC(=O)C(OC)=CC1=O)c1ccccc1 (stereo unspecified)
Completion: active

Prompt: Recorded test outcome, item CC(C)(C)NC[C@@H](O)COc1nsnc1N1CCOCC1
Completion: inactive

Prompt: Recorded test outcome, item CC[N+](CC)(CC(=O)Nc1c(C)cccc1C)Cc1ccccc1
Completion: inactive

Prompt: Recorded test outcome, item C=CC(C)(O)CC/C=C(\C)CCC=C(C)C (stereo unspecified)
Completion: inactive

Prompt: Recorded test outcome, item CN(C)CCOC(C)(c1ccccc1)c1ccccn1 (stereo unspecified)
Completion: inactive

Prompt: Recorded test outcome, item CCCc1c(C(=O)Sc2ccccn2)cnn1-c1ccc(Cl)cc1
Completion: active

Prompt: Recorded test outcome, item N#CC(C#N)=C/C=C(/Sc1nc2ccccc2s1)c1ccc(Br)cc1
Completion: active

Prompt: Recorded test outcome, item CCOC(=O)C1=C(N)OC2=C(C(=O)CC(C)(C)C2)C1c1ccc(Cl)cc1Cl (stereo unspecified)
Completion: inactive

Prompt: Recorded test outcome, item CC1(C)CCCC2(C)C3C1[C@@H](O)C2(C)C[C@H]3O (stereo partly specified)
Completion: inactive

Prompt: Recorded test outcome, item O=S(=O)(N/N=C\c1ccc(Cl)cc1)c1ccc(-c2ccccn2)s1
Completion: inactive

Prompt: Recorded test outcome, item O=[N+]([O-])c1ccc(O)c([N+](=O)[O-])c1
Completion: active

Prompt: Recorded test outcome, item CCCC(C)C1(CC)C(=O)N=C(S)NC1=O (stereo unspecified)
Completion: inactive

Prompt: Recorded test outcome, item CN[C@H](CC(=O)O)C(=O)O
Completion: inactive

Prompt: Recorded test outcome, item CCC(Cc1c(I)cc(I)c(N)c1I)C(=O)O (stereo unspecified)
Completion: active

Prompt: Recorded test outcome, item C=CC(C1=CC(=O)C(OC)=CC1=O)c1ccc(OC)cc1 (stereo unspecified)
Completion: inactive

Prompt: Recorded test outcome, item Cc1c(O)c(O)cc2c1CC=C1[C@@]2(C)CC[C@@]2(C)C3C[C@](C)(C(=O)O)CC[C@]3(C)CC[C@]12C (stereo partly specified)
Completion: inactive

Prompt: Recorded test outcome, item Cc1nn(Cc2ccc(C(=O)Sc3ccc(C(F)(F)F)cn3)o2)c(C)c1Br
Completion: active

Prompt: Recorded test outcome, item O=c1c(Cl)c(-n2cccn2)cnn1-c1ccc(Cl)cc1Cl
Completion: active

Prompt: Recorded test outcome, item c1ccc2c(c1)cc1ccc3cccc4ccc2c1c34
Completion: inactive

Prompt: Recorded test outcome, item CCCCCCCCCCCCCCCC(=O)OCC(O)[C@H]1OC(=O)C(O)=C1O (stereo partly specified)
Completion: active

Prompt: Recorded test outcome, item C=CC(C1=CC(=O)C=CC1=O)c1ccccc1 (stereo unspecified)
Completion: inactive
